test system: KM12 colon; test: NCI tumour cell line growth inhibition, 48 h; in the data active = GI50 below about 0.43 µM; inactive = the rest
One label from this list, please: True for active, False for inactive

Worked examples follow.
compound	category
O=C(NCCN1CCC(O)CC1)c1cc2c(o1)C(=O)c1ccccc1C2=O	False
c1cncc(-c2nc3ccccc3s2)c1	False
COc1ccc(SC2c3ccc(C)cc3Oc3nc(N)c(C#N)c(N)c32)cc1 (stereo not given)	False
COc1ccc2c3c(c4ccccc4cc13)C(=O)N(CCN(C)CCN)C2=O	True

Below: the item to evaluate.
Q. Any idea what this test logged for O=C1C(Cl)=C(Nc2cccc(O)c2)C(=O)N1Cc1ccc(Cl)cc1 ?
A. False

---

system: SF-268 CNS; assay: NCI tumour cell line growth inhibition, 48 h
experimental_readout: TGI

molecule	TGI
COC(=O)c1c(O)ccc2c1c1c(n2Cc2ccccc2OC)C(=O)c2ccccc2C1	> 100 µM
CN1CCN(C(=O)c2c(NC(=O)NS(=O)(=O)c3ccccc3)sc3c2CCCCC3)CC1	> 100 µM
CC(C)(C)c1cc(/C=C/C(=O)CC(=O)/C=C/c2cc(C(C)(C)C)c(O)c(C(C)(C)C)c2)cc(C(C)(C)C)c1O	> 50 µM
COc1cc2cc3c4c(cc(OC)c(OC)c4c2cc1OC)CCN3C(=O)N(C)C	> 100 µM
COc1ccc(SC2c3ccc(C)cc3Oc3nc(N)c(C#N)c(N)c32)cc1 (stereo not given)	3.04 µM

Q. Please list TGI recorded for the molecule O=C1[C@H]2ON(c3ccccc3)C(c3ccccc3F)[C@H]2C(=O)N1c1ccc(Cc2ccc(N3C(=O)[C@@H]4ON(c5ccccc5)C(c5ccccc5F)[C@@H]4C3=O)cc2)cc1 (stereo not given in full)
A. > 100 µM

Q. State, in one line, measured TGI of COc1cc2c(cc1OC)-c1ccc3cc4c(cc3c1N(CCN(C)C)C2)OCO4
A. 2.41 µM

Q. Check the records and state TGI for Clc1cccc(N2CCN(CCN3CCc4c([nH]c5ccccc45)C3c3cccnc3)CC2)c1 (stereo not given)
A. > 100 µM

Q. Supply reported TGI belonging to this molecule: Cn1cc(-c2nc(-c3c[nH]c4ccncc34)cs2)c2cc(F)ccc21
A. 3.44 µM

Q. For the molecule COC(=O)c1c(O)ccc2c1c1c(n2Cc2ccccn2)C(=O)c2ccccc2C1=O , report TGI.
A. > 100 µM

Q. Tell me measured TGI for COc1cc(C=O)c(-c2cc3c(cc2C2(C)OCCS2)OCO3)c(OC)c1OC (stereo not given) please.
A. > 239 µM

---

system: SK-MEL-2 melanoma; test: NCI tumour cell line growth inhibition, 48 h; in the data active = GI50 below about 0.43 µM; inactive = the rest
Response enum: 1 for active, -1 for inactive

// below: answered compounds
compound	category
COc1ccc([I+]c2ccccc2)cc1	-1
Cn1cc(-c2nc(-c3c[nH]c4ccncc34)cs2)c2cc(F)ccc21	-1
C[n+]1c2ccccc2c(Nc2ccc(NS(=O)(=O)CCCCN=C(N)N)cc2)c2ccc(N)cc21	-1
Nc1nc2ccc3[nH]ncc3c2c2c1CCCC2	-1
Oc1ccc2ccccc2c1C1NN=C(c2ccccc2)S1 (stereo not drawn)	1
COc1cc2c(cc1OC)C(CC1(O)CCCCC1)N(S(=O)(=O)c1ccc(C)cc1)CC2 (stereo not drawn)	-1

Q. Just curious, what result did O=C(Nc1ccc2[nH]c(C(=O)N3CC(CCl)c4c3cc([N+](=O)[O-])c3ccccc43)cc2c1)c1cc2ccccc2o1 (stereo not drawn) get here?
A. -1

Q. Check the results log: what was the call for CCCOC(=O)N[C@H]1CCc2cc(OC)c(OC)c(OC)c2-c2ccc(SC)c(=O)cc21 ?
A. -1

---

Listed below: log10 of TGI values for each entry.
system: SF-539 CNS; test: NCI tumour cell line growth inhibition, 48 h
Friendly reminder: values = log10 of TGI, unit µM.

Below, 3 compounds whose answers are already recorded.
compound	log10 of TGI
CCCCCC(O)(CCCCC)CCCCCCCCC1=C(O)c2ccccc2C(=O)C1=O	1.44
CCNc1cc2c3c(c1)CCCN3CCC2	1.61
COc1ccc(-c2nn(-c3cccc(Cl)c3)cc2-c2c(C#N)c(=O)n3[nH]c(-c4ccc(C)cc4)nc3c2C#N)cc1	0.56

Q. Note log10 of TGI for the compound shown: O=c1oc2c/c(=C\c3ccccc3)c(=O)c3cccc1c3-2
A. 1.83

Q. Hello, please tell me recorded log10 of TGI for this one: CCn1c2ccc(C(=O)CCCN(C)C)cc2c2cc(C(=O)CCCN(C)C)ccc21
A. 0.45

Q. Tell us which log10 of TGI value is on record for Nc1nc2ccc3[nH]ncc3c2c2c1CCCC2
A. 0.50

---

The reader will find reported TGI values listed item by item below.
tested on: HL-60(TB) leukemia; assay: NCI tumour cell line growth inhibition, 48 h
// note: answer is a bare numeric in µM

Record excerpt, results attached:
molecule	system_tested	experimental_readout	value_observed
CC(=O)Nc1ccc(-c2nnc(SCC(=O)Nc3cccc([N+](=O)[O-])c3)o2)cc1	HL-60(TB) leukemia	TGI	58.2
O=C(O)c1ccc([S-])cc1.[Au+].c1ccc(CN2[CH-]N(Cc3ccccc3)C(c3ccccc3)=C2c2ccccc2)cc1	HL-60(TB) leukemia	TGI	1.29
CN(C)CCCNc1cnc2cc3ccccc3cc2n1	HL-60(TB) leukemia	TGI	68.3
COc1ccc(-c2cn(-c3cccc(C(=O)/C=C/c4ccc(O)c(OC)c4)c3)c(=O)[nH]2)cc1	HL-60(TB) leukemia	TGI	16

Q. Give reported TGI value for CCCCCCCC(=O)OCC(C[As](=O)(O)O)OC(=O)CCCCCCC (stereo not given)
A. 38.9

---

test system: MOLT-4 leukemia; experiment: NCI tumour cell line growth inhibition, 48 h
Listing of recorded GI50 by entry.

Solved entries (count: 3):
compound	experimental_readout	value_observed
O=C(O)CC(NC(=O)CP(=O)(O)O)C(=O)O.[NH-]C1CCCCC1[NH-].[Pt+2] (centres undefined)	GI50	0.675 µM
CC(C)[NH-].CC(C)[NH-].O.O.[Cl][Pt+2][Cl]	GI50	10.2 µM
O=CC(Br)C(Br)c1ccccc1 (centres undefined)	GI50	0.904 µM

Now look at this one.
Q. Supply GI50 value. Item: CN1C(=O)C(=Cc2cn(Cc3ccccc3)c3ccccc23)C(=O)N(C)C1=O
A. 68.3 µM

---

tested on: IGROV1 ovarian; test: NCI tumour cell line growth inhibition, 48 h; in the data active = GI50 below about 0.43 µM; inactive = the rest
Pick from y = active, n = inactive when you respond.

Some solved cases for reference:
molecule	category
Cn1cc(-c2nc(-c3c[nH]c4ccncc34)cs2)c2cc(F)ccc21	n
COc1cc2c(cc1OC)C(CC1(O)CCCCC1)N(S(=O)(=O)c1ccc(C)cc1)CC2 (stereo not drawn)	n
COc1cc2c(cc1OC)-c1ccc3cc4c(cc3c1N(CCN(C)C)C2)OCO4	n

Q. Per the records of this test, what outcome belongs to COc1ccc(C2=Nc3c/c(=C\c4c(O)[nH]c5ccc(Cl)cc45)ccc3=N2)cc1 ?
A. n

Q. What is the recorded call for this molecule in the test? Cc1cc([N+](=O)[O-])ccc1NS(=O)(=O)c1cc(Cl)ccc1Cl
A. n

Q. Hi, sorry to bother you, what did the test record for N#Cc1ccc(C2C3=C(CCCC3=O)OC3=C2C(=O)c2ccccc2C3=O)cc1 (stereo not drawn) ?
A. n

Q. Outcome logged for CC(C)(c1ccc(Oc2ccc(C#N)c(C#N)c2)cc1)c1ccc(Oc2ccc(C#N)c(C#N)c2)cc1 in this assay:
A. n

Q. What was the test verdict on O=CC(Br)C(Br)c1ccccc1 (stereo not drawn) ?
A. n

Q. Given CC(C)[NH-].CC(C)[NH-].O.O.[Cl][Pt+2][Cl] , state the outcome it received in this test.
A. n

---

tested on: HOP-92 NSCLC; assay: NCI tumour cell line growth inhibition, 48 h
Listing of entries alongside the reported log10 TGI.
Field: value | Transform: log10 | Quantity: TGI | Unit: µM

For orientation, consider the following solved cases.
compound	value_observed
CCOC(=O)c1nc2cc(C(F)(F)F)ccc2nc1Nc1ccc(F)cc1	1.70
COc1ccc(/C=N\NC(=O)Nc2cccc3ccccc23)cc1	1.62
COc1cc2c(cc1OC)-c1ccc3cc4c(cc3c1N(CCN(C)C)C2)OCO4	0.90
CCn1c2ccc(C(=O)CCCN(C)C)cc2c2cc(C(=O)CCCN(C)C)ccc21	0.97
CCCCOC(=O)c1ccc(NC(=O)CCl)cc1	0.56
CN1CCC(C(=O)Nc2n[nH]c3nc(-c4ccc(O)cc4)c(Br)cc23)CC1	0.70

Q. State its log10 TGI: O=CC(Br)C(Br)c1ccccc1 (stereo unspecified)
A. 0.46

Q. Please report the measured log10 TGI for O=[N+]([O-])c1ccc2nc(/C=C(\O)c3ccccc3)c(/C=C(\O)c3ccccc3)nc2c1
A. 0.75

Q. Give log10 TGI for Cn1cc(-c2nc(-c3c[nH]c4ccncc34)cs2)c2cc(F)ccc21
A. 0.53

Q. Give a short answer stating reported log10 TGI for N#Cc1ccc(C2C3=C(CCCC3=O)OC3=C2C(=O)c2ccccc2C3=O)cc1 (stereo unspecified) .
A. 0.56

Cited source: PubChem BioAssay (NCI)
